B1: library; a variant is named by its letters at N, in order (parent)
chain: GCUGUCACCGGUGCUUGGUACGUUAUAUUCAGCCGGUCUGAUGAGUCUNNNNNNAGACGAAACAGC

Variants of: B1
protocol notes: normalized RNA/DNA level with ligand (relative to sTRSVctl = 100) (log10 (% of sTRSVctl)); HEK293T overexpressing SLC46A1; ligand concentration (+) RNA-Seq: 6 mM; higher = less ribozyme self-cleavage, higher mRNA level
condition set: with (6R,S)-folinic acid; ligand present: yes
readout kind: normalized RNA/DNA level with ligand (log10)
Give only the figure.

mutant=CAACGA reported=2

Bench note: what normalized RNA/DNA level with ligand (log10) did "GGCAUC" show?
2.03

I would be grateful if you could share the reported normalized RNA/DNA level with ligand (log10) for "AAGUAU" .
2.02

Quick check: normalized RNA/DNA level with ligand (log10) of "AGCACC" ?
2

Please look up its normalized RNA/DNA level with ligand (log10): "GGACAC"
2.03

For the variant shown here, "AUCUUU" , give the reported normalized RNA/DNA level with ligand (log10).
2.09

Would you mind telling me what normalized RNA/DNA level with ligand (log10) value was observed for "CUAUAG" ?
2

// query normalized RNA/DNA level with ligand (log10) value for entry "CUCGCC"
2.07

# query: normalized RNA/DNA level with ligand (log10) of entry "CCUUUU"
2

Name the reported normalized RNA/DNA level with ligand (log10) value associated with the variant "CAUUCA"
1.97

Please look up its normalized RNA/DNA level with ligand (log10): "GUUUAG"
2.02

State the recorded normalized RNA/DNA level with ligand (log10) for this entry: "GCGGCC"
2.08

Query: normalized RNA/DNA level with ligand (log10); subject: "GGGUAA"
2

Would you mind telling me what normalized RNA/DNA level with ligand (log10) value was observed for "UGAAAG" ?
1.98

Which normalized RNA/DNA level with ligand (log10) value is on record for "UGUGCU" ?
2.07

Consider the variant "CCGGUG" and give its measured normalized RNA/DNA level with ligand (log10).
2.05

Sample "GGAAUG" — what was its normalized RNA/DNA level with ligand (log10)?
2.03

Given "CAUUUU" , state its recorded normalized RNA/DNA level with ligand (log10).
1.99

What value of measured normalized RNA/DNA level with ligand (log10) is listed for "UACGCU" ?
2.04

Cited source: the supplement of paper PMC6757056
